- System: PHF6
- testName: 3' UTR reporter interaction score (median-centred robust z-score of log2 firefly/Renilla activity); higher = less repression of the 3' UTR reporter
- statedConditions: HEK293T; 48 h
quantityName: 3' UTR reporter interaction score
I'd appreciate a reply containing only the number, no unit.

Note to self: 3' UTR reporter interaction score recorded for GAUGAGCUCAUUGUAAUAUG was -0.609

Kindly note the recorded 3' UTR reporter interaction score for UCAGUGCAUCACAGAACUUUGU , which is 0.428

3' UTR reporter interaction score measured on GUGUCUUUUGCUCUGCAGUCA = -0.433

// recorded 3' UTR reporter interaction score for UUUGUGACCUGGUCCACUAACC : 0.815

The sequence identified as GAACGCCUGUUCUUGCCAGGUGG registered its 3' UTR reporter interaction score at -1.24

Reported 3' UTR reporter interaction score for GUGCCGCCAUCUUUUGAGUGU was 1.8

In plain terms, ACCAUCGACCGUUGAUUGUACC has a documented 3' UTR reporter interaction score of 1.81

Entry under test: AACAUUCAUUGUUGUCGGUGGGUU . Its 3' UTR reporter interaction score was 0.446

Recorded 3' UTR reporter interaction score (sequence UACCCAUUGCAUAUCGGAGUUG ): -2.43

// recorded 3' UTR reporter interaction score for AGACCUGGCCCAGACCUCAGC : -0.218

Record AUCCUUGCUAUCUGGGUGCUA . Reported 3' UTR reporter interaction score: -1.61

Lab note: GCGUGCGCCGGCCGGCCGCC gave 3' UTR reporter interaction score of 1.71

Record UGUAAACAUCCUCGACUGGAAG . Reported 3' UTR reporter interaction score: -2.11

Quick note, 3' UTR reporter interaction score for AAACCGUUACCAUUACUGAGUUU landed at 0.358

# 3' UTR reporter interaction score (sequence: AACCCGUAGAUCCGAUCUUGUG ) is -0.973

====

- Test system: MYB
- testName: 3' UTR reporter interaction score (median-centred robust z-score of log2 firefly/Renilla activity); higher = less repression of the 3' UTR reporter
- statedConditions: HEK293T; 48 h
quantityName: 3' UTR reporter interaction score
Output: the number by itself.

GET /values?item= UGGUUGACCAUAGAACAUGCGC &system= MYB returns 3' UTR reporter interaction score: 2.68

Response field 3' UTR reporter interaction score (MYB) for item UACAGUAUAGAUGAUGUACUAG : 1.2

// assay MYB, entry CUUUUUGCGGUCUGGGCUUGC , 3' UTR reporter interaction score value = 0.803

Noted 3' UTR reporter interaction score for AGCUGGUGUUGUGAAUC , tested on MYB: 0.129

Value (3' UTR reporter interaction score, MYB) for record GGUCCAGAGGGGAGAUAGG = -0.834

Param item: UCCCACGUUGUGGCCCAGCAG ; param system: MYB; output 3' UTR reporter interaction score: -0.00342

Record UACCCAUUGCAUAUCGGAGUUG ; system MYB; 3' UTR reporter interaction score = -1.15

Short answer on MYB for AGUGUGGCUUUCUUAGAGC , 3' UTR reporter interaction score: 0.805

Param item: UUGUGCUUGAUCUAACCAUGU ; param system: MYB; output 3' UTR reporter interaction score: 0.205

Test item UGGUUCUAGACUUGCCAACUA ; MYB; reported 3' UTR reporter interaction score was 0.383

I looked up ACAAAGUGCUUCCCUUUAGAGU and its 3' UTR reporter interaction score for MYB was 0.129

UCCCUGAGACCCUUUAACCUGUG tested on MYB gave 3' UTR reporter interaction score: -0.228

Recorded 3' UTR reporter interaction score for CUGGGAUCUCCGGGGUCUUGGUU on MYB was -0.958

Item: UGGUCUAGGAUUGUUGGAGGAG | System: MYB | 3' UTR reporter interaction score: 0.332

The observed 3' UTR reporter interaction score for AGGACCUGCGGGACAAGAUUCUU when tested with MYB stands at 0.35

Let me check: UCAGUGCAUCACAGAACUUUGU , system MYB, measured 3' UTR reporter interaction score is -1.04

Form field, 3' UTR reporter interaction score with MYB, item UAGUACCAGUACCUUGUGUUCA : -2.96

// 3' UTR reporter interaction score (MYB) for AAGUGCUGUCAUAGCUGAGGUC = -0.62

I looked up UCUGCUCAUACCCCAUGGUUUCU and its 3' UTR reporter interaction score for MYB was -1.65

Tested on MYB: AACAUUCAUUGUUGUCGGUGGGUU . Observed 3' UTR reporter interaction score: 0.819

Field 3' UTR reporter interaction score (system: MYB) for entry UUUUUGCGAUGUGUUCCUAAUA = 0.165

UAUUGCACUCGUCCCGGCCUC tested on MYB gave 3' UTR reporter interaction score: 0.69

Measured 3' UTR reporter interaction score for this entry AGUGGGGAACCCUUCCAUGAGGA on MYB: 0.186

Fill in: MYB 3' UTR reporter interaction score for CUAAUAGUAUCUACCACAAUAAA = 1.16

====

- System: MYB
- testName: 3' UTR reporter interaction score (median-centred robust z-score of log2 firefly/Renilla activity); higher = less repression of the 3' UTR reporter
- statedConditions: HEK293T; 48 h
quantityName: 3' UTR reporter interaction score

For this sequence ( AACCCGUAGAUCCGAACUUGUG ), measured 3' UTR reporter interaction score is 0.491

// 3' UTR reporter interaction score value for GACACGGGCGACAGCUGCGGCCC : 0.262

3' UTR reporter interaction score recorded for this sequence, AGAGGUAGUAGGUUGCAUAGU , is 0.728

====

- Test system: MYCN
- testName: 3' UTR reporter interaction score (median-centred robust z-score of log2 firefly/Renilla activity); higher = less repression of the 3' UTR reporter
- statedConditions: HEK293T; 48 h
quantityName: 3' UTR reporter interaction score
Just the number, please, no unit after it.

The sequence UAAAUCCCAUGGUGCCUUCUCCU showed 3' UTR reporter interaction score equal to 1.04

Input AAGCCUGCCCGGCUCCUCGGG . Output 3' UTR reporter interaction score: -0.588

For GCCUGCUGGGGUGGAACCUGG the sequence record lists 3' UTR reporter interaction score as -0.962

Lookup result for ACUGCAGUGAAGGCACUUGU ; measured 3' UTR reporter interaction score: 0.762

3' UTR reporter interaction score measured on AGUAUGUUCUUCCAGGACAGAAC = -0.169

Sample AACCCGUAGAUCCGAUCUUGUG ; 3' UTR reporter interaction score observed: 0.392

The reported value for CUUGGUUCAGGGAGGGUCCCCA in terms of 3' UTR reporter interaction score is 0.421

// recorded 3' UTR reporter interaction score for GGCGGAGGGAAGUAGGUCCGUUGGU : -0.331

According to the records, this sequence UGUUUGCAGAGGAAACUGAGAC displays 3' UTR reporter interaction score of 0.322

3' UTR reporter interaction score for GUGUGUGGAAAUGCUUCUGC is 1.7

# sequence UUGAGAAUGAUGAAUCAUUAGG ; its 3' UTR reporter interaction score = -0.554

The measured 3' UTR reporter interaction score associated with UCCGUCUCAGUUACUUUAUAGCC reads -0.29

// 3' UTR reporter interaction score value for UGGUUUACCGUCCCACAUACAU : 0.327

So for GUGCAUUGUAGUUGCAUUG , the logged 3' UTR reporter interaction score turned out to be -0.218

Sure, the documented 3' UTR reporter interaction score for UGGAAUGUAAGGAAGUGUGUGG is -2.18

The sequence identified as UGGAAUGUAAAGAAGUAUGUA registered its 3' UTR reporter interaction score at -0.505

Looking up CAAAAAUCUCAAUUACUUUUGC , I see its 3' UTR reporter interaction score listed as 0.123

// sample UAAGUGCUUCCAUGUUUGAGUGU , its 3' UTR reporter interaction score was 0.678

Summary for this sequence, UACAGUACUGUGAUAACUGAAG : 3' UTR reporter interaction score is -3.49

Query AAACUCUACUUGUCCUUCUGAGU yields 3' UTR reporter interaction score of -0.333

Please fill in: 3' UTR reporter interaction score reported for UAAGUGCUUCCAUGUUUUAGUAG = 0.56

Value of 3' UTR reporter interaction score reported for the sequence UAAAGCUAGAUAACCGAAAGU is -1.46

====

- Test system: MYCN
- testName: 3' UTR reporter interaction score (median-centred robust z-score of log2 firefly/Renilla activity); higher = less repression of the 3' UTR reporter
- statedConditions: HEK293T; 48 h
Classification scheme (3' UTR reporter interaction score): L (below -0.05), M (-0.05 to below 0.2), H (0.2 or more)

Query block: Band for the recorded 3' UTR reporter interaction score of UCGUGUCUUGUGUUGCAGCCG ?
Result block: H

Query block: # classify by 3' UTR reporter interaction score band: GCGACCCAUACUUGGUUUCAG
Result block: H

Query block: Where would AAAAGCUGGGUUGAGAGGGCGAA land among the classes by reported 3' UTR reporter interaction score?
Result block: M

Query block: Into which category would you place AAAGUGCUUCCCUUUGGACUGU ?
Result block: L

Query block: Class (by measured 3' UTR reporter interaction score) for UAUGGCUUUUUAUUCCUAUGUGA
Result block: H

Query block: State the band of CGAAUGUUGCUCGGUGAACCCCU
Result block: M

Query block: GET /class?item= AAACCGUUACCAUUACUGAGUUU
Result block: L

Query block: Which category does the recorded 3' UTR reporter interaction score put CAUAAAGUAGAAAGCACUAC in?
Result block: L

Query block: Assign a category based on measured 3' UTR reporter interaction score for CAACGGAAUCCCAAAAGCAGCU and give only the class name.
Result block: L
